The reported numbers originate from patent US20250270201A1.

For each record, write down the corresponding IC50.
# Subject Of Test: AHR (Homo sapiens)
# Construct: A human liver cancer cell line HepG2 endogenously expressing an AHR protein
# Sequence (P35869 11-848): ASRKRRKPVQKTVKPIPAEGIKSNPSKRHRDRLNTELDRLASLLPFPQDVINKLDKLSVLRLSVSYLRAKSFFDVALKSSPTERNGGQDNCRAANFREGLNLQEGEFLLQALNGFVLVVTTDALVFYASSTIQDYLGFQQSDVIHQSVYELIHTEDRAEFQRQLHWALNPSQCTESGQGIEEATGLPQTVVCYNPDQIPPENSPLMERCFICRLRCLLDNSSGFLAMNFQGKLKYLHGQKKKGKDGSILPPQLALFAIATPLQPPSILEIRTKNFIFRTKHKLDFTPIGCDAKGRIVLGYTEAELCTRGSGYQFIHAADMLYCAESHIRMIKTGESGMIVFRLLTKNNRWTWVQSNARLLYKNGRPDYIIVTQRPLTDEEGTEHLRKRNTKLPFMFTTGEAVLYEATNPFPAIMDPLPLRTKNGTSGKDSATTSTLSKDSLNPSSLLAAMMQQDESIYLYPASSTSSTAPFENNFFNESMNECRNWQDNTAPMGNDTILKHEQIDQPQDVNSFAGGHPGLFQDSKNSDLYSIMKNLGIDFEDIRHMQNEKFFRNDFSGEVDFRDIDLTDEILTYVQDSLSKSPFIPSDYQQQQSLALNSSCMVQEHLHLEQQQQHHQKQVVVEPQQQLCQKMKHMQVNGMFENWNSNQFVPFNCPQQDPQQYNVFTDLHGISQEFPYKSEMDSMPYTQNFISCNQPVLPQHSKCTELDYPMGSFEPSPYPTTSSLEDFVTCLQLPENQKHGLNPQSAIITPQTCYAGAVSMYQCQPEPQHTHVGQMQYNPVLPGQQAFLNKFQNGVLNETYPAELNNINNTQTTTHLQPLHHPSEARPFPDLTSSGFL
# Assay Procedure: Antagonistic effect for AHR in HepG2 cells stably transfected with CYP1A1-promoter firefly luciferase reporter
# Test Settings: AHR agonist-stimulated, 24 h compound treatment, average of two replicates

Query :: Which IC50 is listed for CC1COCC(=O)N1NC(=O)c1cc(-c2ccc(Cl)cc2)nc(-c2cccnc2)n1 (centres unmarked) ?
Result :: 0.5 to 1 µM

Query :: Give its IC50 value. Item: "C[C@H]1COCCN1NC(=O)c1cc(-c2ccc(OC(F)(F)F)cc2)nc(-c2cnn(C)c2)n1"
Result :: ≤ 0.5 µM

Query :: // lookup IC50 for "O=C(NN1CCOCC1)c1cc(-c2ccc(C(F)(F)F)cc2)nc(-c2cccnc2)n1"
Result :: 0.5 to 1 µM

Query :: Suppose we examine the molecule "CCN(CCO)NC(=O)c1cc(-c2ccc(Cl)cc2)nc(-c2cccnc2)n1" ; what IC50 value has been reported?
Result :: ≤ 0.5 µM

Query :: I am curious: what IC50 value has been reported for "O=C(NN1CCOC[C@@H]1CO)c1cc(-c2ccc(Cl)cc2)nc(-c2cccnc2)n1" ?
Result :: ≤ 0.5 µM

Query :: // returns reported IC50 for input O=C(NN1CCOCC1CO)c1cc(-c2ccc(C(F)(F)F)cc2)nc(-c2cccnc2)n1 (centres unmarked)
Result :: ≤ 0.5 µM

Query :: # get_value(readout='IC50', item= CC1COCC(C)N1NC(=O)c1cc(-c2ccc(OC(F)(F)F)cc2)nc(-c2cccnc2)n1 (centres unmarked) )
Result :: ≤ 0.5 µM

Query :: Name the reported IC50 value associated with the molecule "C[C@H]1COCCN1NC(=O)c1cc(-c2ccc(C(F)(F)F)cc2)nc(-c2cnn(C)c2)n1"
Result :: ≤ 0.5 µM
